test system: CEM cells; assay: Cytostatic assay, CEM; assay type: cell-based; details: Table 1c; read-out: IC50 (μM) CEM
Quantity name: IC50 (µM)
Quick note: give the figure in µM, leave out the unit.

*Q* Which measured IC50 value corresponds to `CCCCSCc1cc(C(=O)OC)c(N2C(=O)c3ccccc3C2=O)s1` ?
*A* 6.6

* * *

I'd appreciate it if you could supply IC50 values for the items below.
system: C8166 cells; assay: Cytostatic assay, C8166; type: cell-based; details: Homo sapiens, Table 2
Quick note: give the figure in µM, leave out the unit.

*Q* Provide value of IC50 for this record tested with C8166 cells: COC(=O)c1cc(CCc2cc(OC)ccc2OC)sc1N [TR584]
*A* 1.4

*Q* Provide value of IC50 for this record tested with C8166 cells: CCOC(=O)c1cc(CCc2ccc(OC)cc2)sc1N [TR532]
*A* 3.4

*Q* Provide value of IC50 for this record tested with C8166 cells: COC(=O)c1cc(CCc2ccc(OC)cc2C)sc1N [TR583]
*A* 1.6

*Q* Provide value of IC50 for this record tested with C8166 cells: COC(=O)c1cc(-c2ccc(OC)cc2)sc1N [TR572]
*A* 179

*Q* Provide value of IC50 for this record tested with C8166 cells: COC(=O)c1cc(CCc2ccccc2)sc1N [TR575]
*A* 2.2

* * *

test system: HeLa cervix carcinoma cells; experiment: Cytostatic assay, HeLa; type: cell-based, human; conditions: Table 1b; read-out: IC50 (μM) (HeLa)
I'd appreciate it if you could supply IC50 values for the items below.
Quick note: give the figure in µM, leave out the unit.

*Q* Which measured IC50 value corresponds to COC(=O)c1cc(CSc2ccc(OC)cc2)sc1N1C(=O)c2ccccc2C1=O [TJ21] ?
*A* 112

*Q* Which measured IC50 value corresponds to COC(=O)c1cc(CSc2cccc(C)c2)sc1N1C(=O)c2ccccc2C1=O [TJ54SM] ?
*A* 121

*Q* Which measured IC50 value corresponds to COC(=O)c1cc(CSc2ccc(OC)cc2)sc1N [TJ22] ?
*A* 58

*Q* Which measured IC50 value corresponds to COC(=O)c1cc(CSCc2ccccc2)sc1N [TJ57] ?
*A* 61

*Q* Which measured IC50 value corresponds to COC(=O)c1cc(CSc2ccccc2)sc1N [TJ4] ?
*A* 108

*Q* Which measured IC50 value corresponds to COC(=O)c1cc(CSCc2ccc(OC)cc2)sc1N1C(=O)c2ccccc2C1=O [TJ127] ?
*A* 111

*Q* Which measured IC50 value corresponds to COC(=O)c1cc(COc2ccc(OC)cc2)sc1N [TJ25] ?
*A* 68

*Q* Which measured IC50 value corresponds to COC(=O)c1cc(CSc2cccc(C)c2)sc1N [TJ54P] ?
*A* 108

*Q* Which measured IC50 value corresponds to COC(=O)c1cc(CNc2ccc(OC)cc2)sc1N [TJ51] ?
*A* 78

*Q* Which measured IC50 value corresponds to COC(=O)c1cc(CSc2ccccc2)sc1N1C(=O)c2ccccc2C1=O [TJ86] ?
*A* 184

* * *

test system: 22Rv1 (UZ) prostate cancer cells; assay: Cytostatic assay, 22Rv1 (UZ); type: cell-based; conditions: Homo sapiens, Table 4
Quantity name: IC50

*Q* Which measured IC50 value corresponds to `CCOC(=O)c1cc(CCc2ccc(OC)cc2)sc1N` ?
*A* 15 µM

*Q* Which measured IC50 value corresponds to `CCOC(=O)c1cc(-c2ccccc2OC)sc1N` ?
*A* 20 µM

*Q* Which measured IC50 value corresponds to `CCOC(=O)c1cc(CCc2ccccc2OC)sc1N` ?
*A* 33 µM

*Q* Which measured IC50 value corresponds to `COc1ccc(-c2cc(C#N)c(N)s2)cc1` ?
*A* 34 µM

*Q* Which measured IC50 value corresponds to `CCOC(=O)c1c(N)sc(CCc2ccc(OC)cc2)c1C(=O)OCC` ?
*A* 31 µM

*Q* Which measured IC50 value corresponds to `COC(=O)c1cc(-c2cc(OC)ccc2OC)sc1N` ?
*A* 11 µM

*Q* Which measured IC50 value corresponds to `COC(=O)c1cc(CCc2ccccc2OC)sc1N` ?
*A* 5.7 µM

*Q* Which measured IC50 value corresponds to `COC(=O)c1cc(-c2ccccc2OC)sc1N` ?
*A* 42 µM

*Q* Which measured IC50 value corresponds to `COC(=O)c1cc(CCc2cc(OC)ccc2OC)sc1N` ?
*A* 0.31 µM

*Q* Which measured IC50 value corresponds to `COc1ccc(CCc2cc(C#N)c(N)s2)cc1` ?
*A* 17 µM

*Q* Which measured IC50 value corresponds to `COc1ccc(OC)c(CCc2cc(C#N)c(N)s2)c1` ?
*A* < 0.032 µM

*Q* Which measured IC50 value corresponds to `COC(=O)c1cc(CCc2ccccc2)sc1N` ?
*A* 9.1 µM

*Q* Which measured IC50 value corresponds to `COC(=O)c1cc(-c2ccc(OC)cc2)sc1N` ?
*A* 69 µM

*Q* Which measured IC50 value corresponds to `COc1ccccc1CCc1cc(C#N)c(N)s1` ?
*A* 9.4 µM

*Q* Which measured IC50 value corresponds to `COC(=O)c1cc(CCc2cccnc2)sc1N` ?
*A* ≥ 100 µM

*Q* Which measured IC50 value corresponds to `N#Cc1cc(CCc2ccccc2)sc1N` ?
*A* 61 µM

*Q* Which measured IC50 value corresponds to `COC(=O)c1cc(CCc2ccsc2)sc1N` ?
*A* 22 µM

*Q* Which measured IC50 value corresponds to `COC(=O)c1cc(CCc2ccccn2)sc1N` ?
*A* 77 µM

*Q* Which measured IC50 value corresponds to `CCOC(=O)c1cc(-c2ccc(OC)cc2)sc1N` ?
*A* 16 µM

*Q* Which measured IC50 value corresponds to `COC(=O)c1cc(CCc2ccc(OC)cc2C)sc1N` ?
*A* 21 µM

*Q* Which measured IC50 value corresponds to `COC(=O)c1c(N)sc(CCc2cc(OC)ccc2OC)c1C` ?
*A* 28 µM

*Q* Which measured IC50 value corresponds to `CCOC(=O)c1cc(C#Cc2ccc(OC)cc2)sc1N` ?
*A* 6.3 µM

*Q* Which measured IC50 value corresponds to `CCOC(=O)c1c(N)sc(CCc2cc(OC)ccc2OC)c1C(=O)OCC` ?
*A* 14 µM

*Q* Which measured IC50 value corresponds to `CCOC(=O)c1cc(CCc2cc(OC)ccc2OC)sc1N` ?
*A* 0.19 µM
